From various publications: Ki for Epidermal growth factor receptor (Homo sapiens).
measured quantity: Ki (nM)

CC(C)n1nc(N)c2cnc(Nc3ccnc(-c4cnn(S(=O)(=O)C5CC5)c4)n3)cc21 :: 8.2
Cc1nc2cnc(Nc3ccnc(-c4cnn(S(C)(=O)=O)c4)n3)cc2n1C(C)C :: 324

A = Nc1nc(NCc2ccc(Cl)cc2)c2c(n1)[nH]c1ccc(O)cc12
B = Cc1nc2cnc(Nc3ccnc(NCC(C)(C)S(C)(=O)=O)n3)cc2n1C(C)C
IN: Short answer wanted: higher Ki, A or B ? Give the label of your selection.
OUT: B
(B: 1820 nM, A: 80 nM)

====

The entries that follow carry Ki values tested on Epidermal growth factor receptor (Homo sapiens), drawn from several published reports.
measured quantity: Ki (nM)

c1ccc2c(CNc3ccnc4oc5ccccc5c34)cccc2c1 :: 680
COc1cc2[nH]c3nc(N)nc(NCc4ccccc4)c3c2cc1O :: 610
Cc1ccc(CNc2nc(N)nc3[nH]c4cc(C)c(O)cc4c23)cc1 :: 5670
COC1CCN(c2nccc(Nc3cc4c(cn3)c(C(N)=O)cn4C(C)C)n2)CC1 :: 167
CN(C)CCn1cnc(-c2ccc(F)cc2)c1-c1ccc2[nH]ncc2c1 :: 67
Cc1cc2[nH]c3nc(N)nc(NCc4cccc(Cl)c4)c3c2cc1O :: 900
C[C@@H](O)c1nc2cnc(Nc3ccnc(N4CC[C@H](O)[C@H](F)C4)n3)cc2n1[C@H](C)C(F)(F)F :: 313
COc1ccccc1CNc1nc(N)nc2[nH]c3cc(C)c(O)cc3c12 :: 4030

A = CC(C)n1cc(C(=O)NC2CCOCC2)c2cnc(Nc3ccnc(-c4cnn(S(=O)(=O)C5CC5)c4)n3)cc21
B = Nc1nc(NCc2ccccc2)c2c(n1)[nH]c1cc(Br)c(O)cc12
C = Fc1ccc(-c2ncn(C3CCN(Cc4ccccc4)C3)c2-c2ccc3[nH]ncc3c2)cc1 (stereo not drawn)
D = Fc1ccc(-c2ncn(CCCN3CCOCC3)c2-c2ccc3[nH]ncc3c2)cc1
IN: Sort the compounds on Ki; start with the lowest figure. Answer format: the labels, in the requested order.
OUT: A, C, D, B
(A: 3.4 nM, C: 8 nM, D: 27 nM, B: 370 nM)

P = CC(C)n1cc(C(N)=O)c2cnc(Nc3ccnc(-c4cnn(S(=O)(=O)C5CC5)c4)n3)cc21
Q = COC1CCN(c2nccc(Nc3cc4[nH]cnc4cn3)n2)CC1
IN: Pick the one with the larger Ki: P vs Q Answer by quoting the chosen item's label.
OUT: Q
(Q: 1200 nM, P: 7.8 nM)
